Numbers sourced from BindingDB's records for doi:10.1021/jm801327q.

Biological target: Amyloid-beta precursor protein (Homo sapiens)
Experiment: EC/IC50 was the effective concentration of agonist inhibiting the formation of A-beta fibrils to 50% of the control value. Three independent measurements were made for all cases.
Property label: EC50 (µM)

[[record]]
compound = "COc1cc(N)c(Cl)cc1C(=O)OCCN1CCC(NC(=O)CCCNCCCc2ccc(CCCNCCCC(=O)NC3CCN(CCOC(=O)c4cc(Cl)c(N)cc4OC)CC3)cc2)CC1 [ML10302 scaffold, 14]"
quantitative_readout = 9

